# run description: melting temperature; melt of duplexes
# run conditions: sodium 0.0675 M; strand 1 µM
measure: Tm

Please review the following examples before continuing.
CGACGTGCCTAATGTGCTG+CAGCACATGGCGCACGTCG ((((((((...((((((((+))))))))...)))))))); 51.1 °C
CGACGTGCCAGATGTGCTG+CAGCACATCTGGCACGTCG (((((((((((((((((((+))))))))))))))))))); 66.5 °C
CGACGTGCCCCATGTGCTG+CAGCACATCCTGCACGTCG ((((((((...((((((((+))))))))...)))))))); 46.8 °C
CGACGTGCCGGATGTGCTG+CAGCACATTACGCACGTCG ((((((((...((((((((+))))))))...)))))))); 50.1 °C
CGACGTGCCTTATGTGCTG+CAGCACATGACGCACGTCG ((((((((.(.((((((((+)))))))).).)))))))); 45.4 °C
CGACGTGCCTTATGTGCTG+CAGCACATTGTGCACGTCG ((((((((...((((((((+))))))))...)))))))); 45.7 °C

Exam item: Entry CGACGTGCAGCATGTGCTG+CAGCACATCATGCACGTCG (((((((((..((((((((+))))))))..))))))))) has what Tm?
Marked response: 49.5 °C

----------
# run description: melting temperature; melt of duplexes
# run conditions: sodium 0.0675 M; strand 1 µM
Form field: Tm (one value per entry).
Kindly format the answer as number then unit.

CGACGTGCGTCATGTGCTG+CAGCACATTACGCACGTCG ((((((((((.((((((((+)))))))).)))))))))); 57.4 °C
CGACGTGCCAAATGTGCTG+CAGCACATACTGCACGTCG ((((((((...((((((((+))))))))...)))))))); 47.4 °C
CGACGTGCATGATGTGCTG+CAGCACATGAGGCACGTCG ((((((((.(.((((((((+)))))))).).)))))))); 52.6 °C
CGACGTGCCTAATGTGCTG+CAGCACATTCTGCACGTCG ((((((((..(((((((((+)))))))))..)))))))); 51 °C
CGACGTGCGTAATGTGCTG+CAGCACATAGAGCACGTCG ((((((((...((((((((+))))))))...)))))))); 54.4 °C
CGACGTGCACTATGTGCTG+CAGCACATTGGGCACGTCG ((((((((.(.((((((((+)))))))).).)))))))); 53.3 °C

Moving on to another substance below.
Exam item: Entry CGACGTGCAGTATGTGCTG+CAGCACATTTAGCACGTCG ((((((((...((((((((+))))))))...)))))))) has what Tm?
Marked response: 48.6 °C

----------
# run description: melting temperature; UV melt of duplexes
# run conditions: sodium 0.62 M; strand 2 µM
measure: Tm (°C)
Note: unit °C is implicit; provide only the numeric part.

Exam item: Entry TTCCAAAAGGAGTTATGAGTTGCGA+TCGCAACTCATAACTCCTTTTGGAA (((((((((((((((((((((((((+))))))))))))))))))))))))) has what Tm?
Marked response: 71.6

Exam item: Entry GTTCACGTCCGAAAGCTCGAAAAAGGATAC+GTATCCTTTTTCGAGCTTTCGGACGTGAAC ((((((((((((((((((((((((((((((+)))))))))))))))))))))))))))))) has what Tm?
Marked response: 77.1

Exam item: Entry GTGGTGGGCCGTGCGCTCTG+CAGAGCGCACGGCCCACCAC ((((((((((((((((((((+)))))))))))))))))))) has what Tm?
Marked response: 79.6

----------
# run description: melting temperature; melt of duplexes
# run conditions: sodium 0.0675 M; strand 1 µM
Form field: Tm (one value per entry).
Note: unit °C is implicit; provide only the numeric part.

Please review the following examples before continuing.
CGACGTGCCCAATGTGCTG+CAGCACATTCCGCACGTCG ((((((((..(((((((((+)))))))))..)))))))); 49.3
CGACGTGCAGGATGTGCTG+CAGCACATCTGGCACGTCG ((((((((..(((((((((+)))))))))..)))))))); 57.1
CGACGTGCTCTATGTGCTG+CAGCACATTTGGCACGTCG ((((((((...((((((((+))))))))...)))))))); 50.1
CGACGTGCGCGATGTGCTG+CAGCACATTCCGCACGTCG (((((((((..((((((((+))))))))..))))))))); 54.9

Exam item: Entry CGACGTGCCAAATGTGCTG+CAGCACATGCAGCACGTCG ((((((((...((((((((+))))))))...)))))))) has what Tm?
Marked response: 52.7

Exam item: Entry CGACGTGCTACATGTGCTG+CAGCACATCGAGCACGTCG (((((((((..((((((((+))))))))..))))))))) has what Tm?
Marked response: 51.6

Exam item: Entry CGACGTGCTTCATGTGCTG+CAGCACATCTAGCACGTCG (((((((((..((((((((+))))))))..))))))))) has what Tm?
Marked response: 50.3

----------
# run description: melting temperature; UV melt of duplexes
# run conditions: sodium 0.12 M; strand 2 µM
Kind request: treat 70 °C as inclusive, so Tm at 70 °C or higher is T, anything lower is F.

Some solved entries appear below for comparison.
TGGATTCTACTCAACCTTAGTCTGG+CCAGACTAAGGTTGAGTAGAATCCA (((((((((((((((((((((((((+))))))))))))))))))))))))); F
GACCTGACGTGGACCGCTCCTGGGCGTGGT+ACCACGCCCAGGAGCGGTCCACGTCAGGTC ((((((((((((((((((((((((((((((+)))))))))))))))))))))))))))))); T
GAGATTGTTTCCCTTTCAAA+TTTGAAAGGGAAACAATCTC ((((((((((((((((((((+)))))))))))))))))))); F
TAGTGGCGATTAGATTCTGC+GCAGAATCTAATCGCCACTA ((((((((((((((((((((+)))))))))))))))))))); F
AAAGGTGTCGCGGAGAGTCGTGCTG+CAGCACGACTCTCCGCGACACCTTT (((((((((((((((((((((((((+))))))))))))))))))))))))); T
CGTACTAGCGTTGGTCATGG+CCATGACCAACGCTAGTACG ((((((((((((((((((((+)))))))))))))))))))); F

Exam item: hey, is Tm for this one >= 70 °C? AGCTGCAGTGGATGTGAGAA+TTCTCACATCCACTGCAGCT ((((((((((((((((((((+))))))))))))))))))))
Marked response: F

----------
# run description: melting temperature; melt of duplexes
# run conditions: sodium 0.0675 M; strand 1 µM
measure: Tm (°C)
Note: unit °C is implicit; provide only the numeric part.

Exam item: Entry CGACGTGCGTAATGTGCTG+CAGCACATATGGCACGTCG ((((((((...((((((((+))))))))...)))))))) has what Tm?
Marked response: 51

----------
# run description: melting temperature; melt of duplexes
# run conditions: sodium 0.0675 M; strand 1 µM
Form field: Tm (one value per entry).
Note: unit °C is implicit; provide only the numeric part.

Please review the following examples before continuing.
CGACGTGCAGGATGTGCTG+CAGCACATGAAGCACGTCG ((((((((...((((((((+))))))))...)))))))); 50.3
CGACGTGCCGTATGTGCTG+CAGCACATAGTGCACGTCG ((((((((..(((((((((+)))))))))..)))))))); 49.5
CGACGTGCCGAATGTGCTG+CAGCACATACCGCACGTCG ((((((((.(.((((((((+)))))))).).)))))))); 49.5
CGACGTGCAAAATGTGCTG+CAGCACATAGTGCACGTCG (((((((((..((((((((+))))))))..))))))))); 47

Exam item: Entry CGACGTGCGCGATGTGCTG+CAGCACATGTTGCACGTCG ((((((((...((((((((+))))))))...)))))))) has what Tm?
Marked response: 50.5

Exam item: Entry CGACGTGCATCATGTGCTG+CAGCACATTTTGCACGTCG (((((((((..((((((((+))))))))..))))))))) has what Tm?
Marked response: 50.7

Exam item: Entry CGACGTGCTGCATGTGCTG+CAGCACATTTGGCACGTCG ((((((((...((((((((+))))))))...)))))))) has what Tm?
Marked response: 49.1
